Reference source: ChEMBL document CHEMBL1641591

# Species: Homo sapiens
# ASSAY: Selectivity ratio of Ki for human recombinant MAOA to Ki for human recombinant MAOB
EXPERIMENTAL READOUT: Ratio Ki

Consider the following illustrative entries.
MOLECULE	Ratio Ki
O=C1Nc2cc(-c3ccccc3)ccc2C1=O	0.333
O=C1Nc2ccc(CCc3ccccc3)cc2C1=O	2.13
Nc1cccc(/C=C/c2ccccc2)c1	3.24

(I) Nc1ccc(/C=C/c2ccccc2)cc1 [(E)-4-STYRYLANILINE]
(II) O=C1Nc2cc(CCc3ccccc3)ccc2C1=O
(III) O=C1Nc2ccc(-c3ccccc3)cc2C1=O
(IV) O=C1Nc2ccc(Oc3ccccc3)cc2C1=O
Form: Sort by [Ratio Ki] Order [ ascending ] List the labels in the requested order. III, II, I, IV
